- TEST CONTEXT: buffer; pH 7.4; 200.0 µM
MEASUREMENT NAME: log10 of solubility kinetic (log10 of the value in µg/mL)

- SAMPLE SMILES: "O=C(CC(=O)c1ccccc1)Nc1cc([N+](=O)[O-])ccc1Cl"
  log10 of solubility kinetic: -0.22
- SAMPLE SMILES: "O=C(Nc1nc2ccc([N+](=O)[O-])cc2s1)c1ccncc1"
  log10 of solubility kinetic: 0.28
- SAMPLE SMILES: "COc1cc(CN2CCCN(C)CC2)c([N+](=O)[O-])cc1OC"
  log10 of solubility kinetic: 1.59
- SAMPLE SMILES: "CCCCNS(=O)(=O)c1ccc(NC(=O)c2cccs2)cc1"
  log10 of solubility kinetic: 0.00
- SAMPLE SMILES: "O=C(CCNC(=O)c1ccccc1Cl)NC1=NCCS1"
  log10 of solubility kinetic: 1.63
- SAMPLE SMILES: "COc1cc2c(cc1OC)CN(c1ncccc1[N+](=O)[O-])CC2"
  log10 of solubility kinetic: 0.75
- SAMPLE SMILES: "O=S(=O)(Oc1ccccc1N1CCCCC1)c1ccccc1"
  log10 of solubility kinetic: 0.36
- SAMPLE SMILES: "COc1ccccc1NC(=O)c1cc([N+](=O)[O-])ccc1N1CCOCC1"
  log10 of solubility kinetic: 1.49
- SAMPLE SMILES: "O=C(CSc1ccccc1)Nc1ccc2sccc2c1"
  log10 of solubility kinetic: -0.15

Every entry's value here was drawn from PubChem BioAssay AID1996.
